Assign TGI to each entry below.
- Tested on: SK-OV-3 ovarian
- Protocol text: NCI tumour cell line growth inhibition, 48 h

Compound	TGI
N#CN1CC[C@H](C(=O)Nc2ncc(-c3ccncc3)s2)C1	> 30.9 µM

Count: 6. Required value per item: TGI.
1. OC(c1ccc(-c2ccccc2)cc1)C(F)(F)c1nc2ccccc2o1 (configuration not stated)
2. O=C(Nc1cccc(F)c1)c1cc2ccc(O)cc2oc1=Nc1ccccc1F
3. Cc1c(C2=C(c3cn(C)c4ccccc34)C(=O)NC2=O)c2ccccc2n1C
4. CNc1ccc(N)cc1C(=O)N1CCC[C@H]1CO
5. COc1ccc2c(c1)CCN1CCc3cc(OC)c(OC)cc3CC21 (configuration not stated)
6. O[C@H]1[C@H](O)[C@@H](O)[C@@]2(O)C[C@@H](O)[C@@H]1N2

Marked response:
1: > 100 µM; 2: 15.9 µM; 3: > 25 µM; 4: > 100 µM; 5: > 100 µM; 6: > 100 µM

---

Assign TGI to each entry below.
- Tested on: SN12C renal
- Protocol text: NCI tumour cell line growth inhibition, 48 h

Compound	TGI
CCCCCCN(N)C(=O)CC#N	> 100 µM
COc1ccc(-c2cc(=O)c3c(OC)c(OC)c(OC)c(OC)c3o2)cc1	> 100 µM
COC12c3ccccc3-c3ccccc3C1[C@H]1C(=O)OC(=O)[C@H]12 (stereo partly specified)	> 10 µM
O=C(Oc1cccnc1)c1ccsc1Nc1ccnc(C(F)(F)F)c1	> 100 µM

Count: 2. Required value per item: TGI.
1. CC(C)=C/C=C1/CS(=O)(=O)C=C1C
2. CCO/C=C1\N=C(c2ccccc2Br)OC1=O

Marked response:
1: > 100 µM; 2: > 100 µM

---

- System: NCI-H226 lung
- Protocol text: NCI tumour cell line growth inhibition, 48 h
Assign TGI to each entry below.
Give bare numbers, in µM.

# example entries with known answers
Compound	Output unit	TGI
C/C=C(\C)c1cc(O)c(C)c2c1Oc1cc(O)c(Cl)c(C)c1C(=O)O2	µM	33.6
CCCCn1c(=O)c2c(nc3n2CCCN3CCc2ccc(OCC(=O)NCCN(CC)CC)cc2)n(CCCC)c1=O	µM	16.9

# evaluate next
Exam item: Need TGI, item O=C(Cc1ccccc1)NN1C(=O)C(Cl)C1c1ccccc1O (stereo unspecified)
Marked response: 52.5

---

Assign TGI to each entry below.
- System: EKVX NSCLC
- Protocol text: NCI tumour cell line growth inhibition, 48 h

# example entries with known answers
Molecule	Result
CC[C@@H](/C=C\CCC(=O)C[C@H](O)CCC=C(C)C)O[Si](C(C)C)(C(C)C)C(C)C	> 100 µM
COc1cccc(N2C(=O)C3c4[nH]c5ccc(C)cc5c4C4CCC(C(C)(C)C)CC4C3C2=O)c1 (stereo not drawn)	> 10 µM

Exam item: Need TGI, item CC(C)[C@@H]1ON1C(C)c1ccccc1 (stereo partly drawn)
Marked response: > 100 µM

---

- System: KM20L2 colon
- Protocol text: NCI tumour cell line growth inhibition, 48 h
Assign TGI to each entry below.

# example entries with known answers
Compound	TGI
O=P1(Oc2ccccc2)C(c2ccccc2)C(c2ccccc2)=NN1c1ccccc1 (stereo not drawn)	44.9 µM
N#Cc1ccc(N=Cc2c([O-])ccc3ccccc23)cc1.[C-]#[O+].[C-]#[O+].[Ir]	29.5 µM
CCCCCCCCCCCCCP(=O)(O)NCC(N)=O	> 100 µM
COC(=O)CC1NC(=O)C1C1(C)OCCO1 (stereo not drawn)	> 100 µM
O=C(NC1CCCC1=O)c1ccccc1 (stereo not drawn)	> 100 µM
COC(CN1C=C(Sc2ccccc2)CC1)OC	> 100 µM

Count: 2. Required value per item: TGI.
1. CCCCCCN(N)C(=O)CC#N
2. Cc1cc2c(c(C(=O)O)c1C)-c1cccc(F)c1C2=O

Marked response:
1. > 100 µM
2. > 100 µM
